Source of measurements: PubChem BioAssay (NCI)

System: IGROV1 ovarian
measurement.notes: NCI tumour cell line growth inhibition, 48 h
The molecules listed here are annotated with their TGI.

molecule	TGI
CCn1c2ccccc2c2cc(NC(=O)c3c(NCCNCCO)nc(=O)[nH]c3C)ccc21	> 100 µM
COC1CC(OC)C(O)C(CO)O1 (stereo unspecified)	> 100 µM
Nc1ncnc2c1ncn2C1OC(COC2C(CO)OC(OC(C(=O)O)C(O)C(OP(=O)(O)O)C(O)C(=O)O)C(O)C2O)C(O)C1O (stereo unspecified)	> 100 µM
O=S(=O)(CCCCl)SCCCCl	> 67.5 µM
Cn1c(=O)cc(N2CCCC2)[nH]c1=O	> 100 µM
CC1=C2CN(C(=O)OCC(C)C)CCC2C2=C(C(=O)c3ccccc3C2=O)C1C (stereo unspecified)	> 10 µM
